- experimental_system: Bcl-2-like protein 2 (Homo sapiens)
- Sequence (Q92843 whole entry): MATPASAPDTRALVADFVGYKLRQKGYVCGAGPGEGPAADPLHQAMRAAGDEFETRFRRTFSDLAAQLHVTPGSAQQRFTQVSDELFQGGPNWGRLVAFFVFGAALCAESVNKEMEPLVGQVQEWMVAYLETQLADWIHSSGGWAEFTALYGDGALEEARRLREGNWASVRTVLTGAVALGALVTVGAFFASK
- assay_details: Bcl-W/Bim binding regulators – biochemical, multiplexed, bead-based flow cytometry, fluorescence, dose response (AID 1330)
- condition_info: inactive by the depositor's call
Entries whose EC50 is below 4 µM take TRUE; entries at or above 4 µM take FALSE.

Inquiry: Please let me know if CC1N(C)c2cccc3cccc(c23)N1C shows EC50 below 4 µM.
Reply text: TRUE

Inquiry: Please let me know if Cc1ccc(CNc2ccc3c(c2)OCO3)c(C)c1 shows EC50 below 4 µM.
Reply text: FALSE

Inquiry: Please let me know if CCOc1ccccc1CNc1ccc(O)cc1 shows EC50 below 4 µM.
Reply text: TRUE

Inquiry: Please let me know if COC(=O)CSc1ncnc2c1sc1nc(-c3ccco3)c3c(c12)CC(C)(C)OC3 shows EC50 below 4 µM.
Reply text: FALSE

Inquiry: Please let me know if Fc1ccc(C2=Nc3cccc4cccc(c34)N2)cc1 shows EC50 below 4 µM.
Reply text: FALSE

Inquiry: Please let me know if Cc1ccc(-c2ccc(/C=C/C(=O)c3ccccc3)o2)cc1 shows EC50 below 4 µM.
Reply text: TRUE

Inquiry: Please let me know if COCCNc1[nH]c(=S)nc2cc(OC)c(OC)cc12 shows EC50 below 4 µM.
Reply text: TRUE

Inquiry: Please let me know if COc1cc2nc(=S)[nH]c(NCC3CCCO3)c2cc1OC (centres undefined) shows EC50 below 4 µM.
Reply text: FALSE

Inquiry: Please let me know if Cc1ccc(-c2cc(-c3ccc(C)o3)nc(N)c2C#N)cc1 shows EC50 below 4 µM.
Reply text: FALSE

Inquiry: Please let me know if c1coc(C2=Nc3cccc4cccc(c34)N2)c1 shows EC50 below 4 µM.
Reply text: FALSE

Inquiry: Please let me know if COc1ccc(C2=Nn3c(nnc3-c3ccco3)SC2)cc1OC shows EC50 below 4 µM.
Reply text: FALSE

Inquiry: Please let me know if CC(C)(C)NC(=O)COc1ccc(CNc2ccc3[nH]c(O)nc3c2)cc1 shows EC50 below 4 µM.
Reply text: FALSE

Inquiry: Please let me know if O=C(/C=C/c1ccccc1Cl)c1ccccc(=O)c1O shows EC50 below 4 µM.
Reply text: FALSE

Inquiry: Please let me know if CCN1C(=O)/C(=C/C=C2\C=CN(CC)c3ccccc32)SC1=S shows EC50 below 4 µM.
Reply text: FALSE

Inquiry: Please let me know if COCCCNc1nc(S)nc2cc(OC)c(OC)cc12 shows EC50 below 4 µM.
Reply text: TRUE

Inquiry: Please let me know if Cc1cc(OCc2cn3cccnc3n2)ccc1Cl shows EC50 below 4 µM.
Reply text: FALSE

Inquiry: Please let me know if Nc1ccc(C2=Nc3cccc4cccc(c34)N2)cc1 shows EC50 below 4 µM.
Reply text: FALSE

Inquiry: Please let me know if COc1ccc2nc(-c3ccco3)c(-c3ccco3)nc2c1 shows EC50 below 4 µM.
Reply text: FALSE

Inquiry: Please let me know if COc1cc(CNc2ccc(N3CCCC3)cc2)cc(Cl)c1OC shows EC50 below 4 µM.
Reply text: TRUE

Inquiry: Please let me know if COc1ccc(C)cc1-n1c(=O)c2ccccc2c2ccccc2c1=O shows EC50 below 4 µM.
Reply text: FALSE

Inquiry: Please let me know if O=C(Nc1ccccc1)c1ccc2nc(-c3ccco3)c(-c3ccco3)nc2c1 shows EC50 below 4 µM.
Reply text: FALSE

Inquiry: Please let me know if COc1cc(CNc2ccc3[nH]c(=O)[nH]c3c2)cc(Br)c1OCC(=O)NC(C)(C)C shows EC50 below 4 µM.
Reply text: TRUE

Inquiry: Please let me know if CN1CCN(C2=C(Cl)C(=O)C(c3cnc(N4CCCCC4)s3)=C(Cl)C2=O)CC1 shows EC50 below 4 µM.
Reply text: TRUE

Inquiry: Please let me know if CCc1ccc(/C=C/C(=O)c2cc(Br)ccc(=O)c2O)cc1 shows EC50 below 4 µM.
Reply text: FALSE

Inquiry: Please let me know if CN(N=Cc1ccncc1)C1=NS(=O)(=O)c2ccccc21 shows EC50 below 4 µM.
Reply text: TRUE

Inquiry: Please let me know if O=C(CSc1ccc2nnc(-c3ccccn3)n2n1)Nc1nccs1 shows EC50 below 4 µM.
Reply text: FALSE

Inquiry: Please let me know if O=C(Nc1cccc(Cl)c1)Nc1ccnc(-c2cccnc2)n1 shows EC50 below 4 µM.
Reply text: TRUE

Inquiry: Please let me know if O=C(/C=C/c1ccc(-c2ccccc2)o1)c1ccccc1 shows EC50 below 4 µM.
Reply text: FALSE

// provenance: BindingDB's records for doi:10.7270/Q2BR8QM3
